Target: myeloperoxidase (MPO) (Homo sapiens, UniProt P05164)
Sequence (P05164 49-745): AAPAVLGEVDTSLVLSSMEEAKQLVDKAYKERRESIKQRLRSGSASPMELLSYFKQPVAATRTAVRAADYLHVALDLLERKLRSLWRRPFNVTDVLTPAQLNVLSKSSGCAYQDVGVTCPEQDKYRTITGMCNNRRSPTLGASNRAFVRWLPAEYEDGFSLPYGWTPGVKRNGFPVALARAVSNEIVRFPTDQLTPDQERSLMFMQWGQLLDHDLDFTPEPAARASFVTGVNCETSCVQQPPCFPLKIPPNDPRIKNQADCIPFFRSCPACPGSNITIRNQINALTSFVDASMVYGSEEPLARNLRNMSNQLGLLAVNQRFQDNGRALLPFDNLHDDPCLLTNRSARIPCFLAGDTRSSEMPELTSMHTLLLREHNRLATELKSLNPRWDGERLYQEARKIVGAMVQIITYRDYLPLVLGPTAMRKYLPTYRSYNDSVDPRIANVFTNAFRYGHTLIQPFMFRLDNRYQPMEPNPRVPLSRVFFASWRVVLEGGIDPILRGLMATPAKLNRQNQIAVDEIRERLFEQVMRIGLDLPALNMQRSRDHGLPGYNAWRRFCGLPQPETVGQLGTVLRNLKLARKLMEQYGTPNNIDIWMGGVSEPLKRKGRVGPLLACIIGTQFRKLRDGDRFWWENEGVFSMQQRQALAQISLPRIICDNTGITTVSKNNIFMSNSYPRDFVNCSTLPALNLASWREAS
Test: MPO peroxidation assay (Amplex Red assay)
Format: biochemical
Conditions: MPO peroxidation, potency range class; read-out: Amplex Red IC50
pIC50: −log10 of the molar value.
Each record here notes measured pIC50.

input: Provide value of pIC50 for this record tested with myeloperoxidase (MPO) (Homo sapiens, UniProt P05164): COc1ccc(-c2ccc(COc3cc(N)nc4[nH]nnc34)c(OC(F)(F)F)c2)cn1
output: 7.00 to 9.00

input: Provide value of pIC50 for this record tested with myeloperoxidase (MPO) (Homo sapiens, UniProt P05164): Nc1cc(OCc2cc(C(=O)N3CCC3)ccc2Cl)c2nn[nH]c2n1
output: 6.00 to 7.00
